Listed molecules paired with reported IC50
molecular target: O-acyltransferase (Oryctolagus cuniculus)
Sequence (G1SFD9 1-524): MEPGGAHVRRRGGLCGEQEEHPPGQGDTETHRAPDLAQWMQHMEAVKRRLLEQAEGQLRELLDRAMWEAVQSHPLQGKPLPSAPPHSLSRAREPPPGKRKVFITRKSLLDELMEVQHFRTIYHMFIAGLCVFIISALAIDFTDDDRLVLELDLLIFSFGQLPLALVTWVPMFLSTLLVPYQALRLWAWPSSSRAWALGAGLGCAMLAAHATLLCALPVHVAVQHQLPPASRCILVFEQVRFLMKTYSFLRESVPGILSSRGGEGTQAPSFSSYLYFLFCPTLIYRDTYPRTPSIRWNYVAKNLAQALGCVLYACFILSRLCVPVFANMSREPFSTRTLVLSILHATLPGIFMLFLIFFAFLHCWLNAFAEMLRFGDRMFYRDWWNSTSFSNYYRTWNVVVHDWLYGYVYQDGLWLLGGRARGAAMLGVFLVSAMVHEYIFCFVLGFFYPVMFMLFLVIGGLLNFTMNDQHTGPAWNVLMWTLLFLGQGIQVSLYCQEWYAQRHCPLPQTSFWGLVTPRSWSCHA

Molecule: CC(C)c1cccc(C(C)C)c1NC(=O)NC1CCc2ccccc21 (stereo not drawn)
IC50: 910 nM
--
Molecule: CC(C)c1cccc(C(C)C)c1NC(=O)NCC1(O)CCc2ccccc21 (stereo not drawn)
IC50: 810 nM
--
Molecule: CC(C)c1cccc(C(C)C)c1NC(=O)NCC1(O)CCCc2ccccc21 (stereo not drawn)
IC50: 350 nM
--
Molecule: CC(C)c1cccc(C(C)C)c1NC(=O)NCC1c2ccccc2Oc2ccccc21
IC50: 42 nM
--
Molecule: CC(C)c1cccc(C(C)C)c1NC(=O)NC1CCc2ccccc2C12CCCC2 (stereo not drawn)
IC50: 31 nM
--
Molecule: CC(C)c1cccc(C(C)C)c1NC(=O)NC1COc2ccccc2C1 (stereo not drawn)
IC50: 110 nM
--
Molecule: CC(C)c1cccc(C(C)C)c1NC(=O)NCC1(c2ccccc2)Cc2ccccc2C1
IC50: 27 nM
--
Molecule: CC(C)c1cccc(C(C)C)c1NC(=O)NCC1=CCCc2ccccc21
IC50: 29 nM

Where these numbers come from: ChEMBL document CHEMBL1152019
